Origin of measurements: patent US20140135310A1

assayed_target: 5-HT6 receptor (Homo sapiens, UniProt P50406)
Construct: purchased PerkinElmer
Sequence (P50406 whole entry): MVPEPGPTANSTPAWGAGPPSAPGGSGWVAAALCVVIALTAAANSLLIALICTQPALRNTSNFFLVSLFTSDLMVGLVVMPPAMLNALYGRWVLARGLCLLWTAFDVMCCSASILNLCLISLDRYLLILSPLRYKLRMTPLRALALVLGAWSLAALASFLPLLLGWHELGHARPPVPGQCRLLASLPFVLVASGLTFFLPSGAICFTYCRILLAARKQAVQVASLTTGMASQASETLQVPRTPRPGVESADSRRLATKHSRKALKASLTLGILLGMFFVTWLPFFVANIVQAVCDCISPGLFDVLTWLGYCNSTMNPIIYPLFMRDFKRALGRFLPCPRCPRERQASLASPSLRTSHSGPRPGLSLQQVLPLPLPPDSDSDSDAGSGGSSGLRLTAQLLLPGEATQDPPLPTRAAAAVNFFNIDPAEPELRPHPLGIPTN
procedure_summary: Radioligand binding assay, serotoninergic 5-HT6 receptors;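 also: test compound at 1 µM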
conditions: binding assay result in %, Table 5a
Please provide measured inhibition at 1 µM for the entries that follow.
Numbers only, in %.

Recorded inhibition at 1 µM, per entry:
[[record]]
compound = "O=S(=O)(NCC1CCN(CCOc2nsc3ccccc23)C1)c1ccc2ccccc2c1 (centres unmarked) [Compound 44]"
value_measured = 81

[[record]]
compound = "O=S(=O)(NCC1CCN(CCCc2noc3cc(F)ccc23)C1)c1cccc2ccccc12 (centres unmarked) [Compound 239]"
value_measured = 97

[[record]]
compound = "Cn1ccc2cc(S(=O)(=O)NCC3CN(CCOc4cccc5c4OCCO5)C3)ccc21 [Compound 187]"
value_measured = 44

[[record]]
compound = "Cc1c(S(=O)(=O)N[C@@H]2CCN(CCCc3noc4cc(F)ccc34)C2)sc2ccc(Cl)cc12 [Compound 204]"
value_measured = 97

[[record]]
compound = "COc1ccc2cc(S(=O)(=O)N[C@H]3CCN(CCCc4noc5cc(F)ccc45)C3)ccc2c1 [Compound 231]"
value_measured = 86


Count: 3. Required value per item: inhibition at 1 µM.
1. O=S(=O)(NCC1CCN(CCOc2cccc3c2OCCO3)C1)c1cccc(O)c1 (centres unmarked) [Compound 303]
2. O=S(=O)(NC1CCN(CCCc2noc3cc(F)ccc23)C1)c1ccc(Br)cc1 (centres unmarked) [Compound 10]
3. Cc1cccc(S(=O)(=O)NC2CCN(CCCc3c[nH]c4ccc(F)cc34)C2)c1 (centres unmarked) [Compound 78]

(A)
[48, 85, 94]

# batch: return inhibition at 1 µM for each of the 7 compounds below
1. Cc1c(S(=O)(=O)NCC2CN(CCOc3cccc4c3OCCO4)C2)sc2ccc(Cl)cc12 [Compound 175]
2. O=S(=O)(NCC1CN(CCCc2noc3cc(F)ccc23)C1)c1cccc(O)c1 [Compound 149]
3. Cc1c(S(=O)(=O)NCC2CCN(CCOc3cccc4ccccc34)C2)sc2ccc(F)cc12 (centres unmarked) [Compound 271]
4. Cn1ccc2c(S(=O)(=O)NCC3CCN(CCCc4noc5cc(F)ccc45)C3)cccc21 (centres unmarked) [Compound 259]
5. Cc1ccc(S(=O)(=O)NC2CCN(CCCc3noc4cc(F)ccc34)C2)cc1 (centres unmarked) [Compound 209]
6. Cc1cccc(S(=O)(=O)NC2CCN(CCCc3c[nH]c4ccc(Cl)cc34)C2)c1 (centres unmarked) [Compound 86]
7. O=S(=O)(N[C@H]1CCN(CCCc2noc3cc(F)ccc23)C1)c1cc2ccccc2s1 [Compound 197]

(A)
95
71
76
92
62
98
97

Could I get inhibition at 1 µM for every one of these entries?
1. CC1(C)Cc2cccc(OCCN3CCC(CNS(=O)(=O)c4cccc(O)c4)C3)c2O1 (centres unmarked) [Compound 113]
2. O=S(=O)(NCC1CCN(CCOc2cccc3c2OCCO3)C1)c1ccc(Cl)c(Cl)c1 (centres unmarked) [Compound 301]

(A)
1. 52
2. 61

---

assayed_target: dopaminergic receptors D3 (Homo sapiens)
Sequence (P35462 whole entry): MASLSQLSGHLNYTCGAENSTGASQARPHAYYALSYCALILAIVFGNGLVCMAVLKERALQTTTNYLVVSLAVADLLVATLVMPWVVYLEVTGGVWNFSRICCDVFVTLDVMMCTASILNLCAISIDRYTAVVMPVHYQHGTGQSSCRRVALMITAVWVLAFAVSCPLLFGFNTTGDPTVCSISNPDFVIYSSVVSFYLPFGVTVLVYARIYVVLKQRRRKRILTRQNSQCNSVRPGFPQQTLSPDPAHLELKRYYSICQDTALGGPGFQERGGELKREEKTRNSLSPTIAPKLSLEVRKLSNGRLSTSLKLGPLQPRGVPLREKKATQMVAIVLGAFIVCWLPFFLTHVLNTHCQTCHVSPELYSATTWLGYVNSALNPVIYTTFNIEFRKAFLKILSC
procedure_summary: Radioligand binding assay, dopaminergic D3 receptors
conditions: test compound 1×10^−6 M
Would you kindly list inhibition at 1 µM for each of these compounds?
One number for each entry, in %.

In the examples that follow, each entry is paired with its recorded inhibition at 1 µM.
[[record]]
compound = "CC(C)(C)c1ccc(S(=O)(=O)NC2CCN(CCCc3noc4cc(F)ccc34)C2)cc1 (centres unmarked) [Compound 14]"
assayed_target = "dopaminergic receptors D3 (Homo sapiens)"
value_measured = 90

[[record]]
compound = "O=S(=O)(NC1CCN(CCCc2noc3cc(F)ccc23)C1)c1ccc2ccccc2c1 (centres unmarked) [Compound 21]"
assayed_target = "dopaminergic receptors D3 (Homo sapiens)"
value_measured = 96


Please supply inhibition at 1 µM for each of the following items, keeping them in order.
1. O=S(=O)(NCC1CN(CCCc2noc3cc(F)ccc23)C1)c1cccc2ccccc12 [Compound 133]
2. CC(C)(C)c1ccc(S(=O)(=O)NCC2CN(CCOc3cccc4c3OCCO4)C2)cc1 [Compound 181]
3. O=S(=O)(NCC1CCN(CCOc2cccc3ccccc23)C1)c1csc2ccccc12 (centres unmarked) [Compound 276]
4. O=S(=O)(NCC1CN(CCOc2cccc3c2OCCO3)C1)c1csc2ccccc12 [Compound 190]

(A)
[74, 77, 91, 62]

Respectfully, I request inhibition at 1 µM for each entry included below.
1. O=S(=O)(NCC1CN(CCOc2cccc3ccccc23)C1)c1ccc(F)c(Cl)c1 [Compound 172]
2. O=S(=O)(NCC1CN(CCCc2c[nH]c3ccc(Cl)cc23)C1)c1ccc2ccccc2c1 [Compound 161]

(A)
100
75

---

What 5-HT7 ag [%] was measured for each of the following?
assayed_target: 5-HT7 serotoninergic receptors (Homo sapiens, UniProt P34969)
Sequence (P34969 whole entry): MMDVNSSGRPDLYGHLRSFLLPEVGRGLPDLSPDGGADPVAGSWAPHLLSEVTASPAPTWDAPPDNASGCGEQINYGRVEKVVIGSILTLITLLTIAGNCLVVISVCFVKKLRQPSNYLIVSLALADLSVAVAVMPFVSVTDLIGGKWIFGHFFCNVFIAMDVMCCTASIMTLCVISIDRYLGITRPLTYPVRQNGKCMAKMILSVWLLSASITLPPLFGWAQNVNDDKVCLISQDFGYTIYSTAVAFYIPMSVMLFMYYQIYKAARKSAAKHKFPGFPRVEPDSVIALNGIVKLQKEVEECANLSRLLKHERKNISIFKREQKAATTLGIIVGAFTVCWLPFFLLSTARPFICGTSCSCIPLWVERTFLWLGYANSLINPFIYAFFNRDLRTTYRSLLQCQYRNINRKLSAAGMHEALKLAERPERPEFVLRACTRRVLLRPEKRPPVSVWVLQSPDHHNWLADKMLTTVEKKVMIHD
procedure_summary: Cellular functional assay, 5-HT7 serotoninergic receptors
Format: cell-based
conditions: agonist mode; percent of control specific agonist response
Answers are plain numbers, in %.

Examples with their reported 5-HT7 ag [%] follow.
[[record]]
molecule = "Cc1c(S(=O)(=O)N[C@H]2CCN(CCCc3noc4cc(F)ccc34)C2)sc2ccc(F)cc12 [Compound 203]"
unit_annotation = "%"
value_measured = 0

[[record]]
molecule = "O=S(=O)(NC1CCN(CCCc2noc3cc(F)ccc23)C1)c1cccc2ccccc12 (centres unmarked) [Compound 20]"
unit_annotation = "%"
value_measured = "−2"

[[record]]
molecule = "O=S(=O)(NC1CCN(CCCc2noc3cc(F)ccc23)C1)c1cc2ccccc2o1 (centres unmarked) [Compound 216]"
unit_annotation = "%"
value_measured = "−5"

[[record]]
molecule = "O=S(=O)(NC1CCN(CCCc2noc3cc(F)ccc23)CC1)c1cccc2ccccc12 [Compound 34]"
unit_annotation = "%"
value_measured = "−1"

[[record]]
molecule = "O=S(=O)(NC1CCN(CCOc2nsc3ccccc23)C1)c1ccc2ccccc2c1 (centres unmarked) [Compound 39]"
unit_annotation = "%"
value_measured = 1


Please give 5-HT7 ag [%] for each item listed below.
1. O=S(=O)(NC1CCN(CCOc2cccc3[nH]ccc23)CC1)c1ccccc1 [Compound 55]
2. O=S(=O)(N[C@@H]1CCN(CCCc2noc3cc(F)ccc23)C1)c1cc2ccccc2s1 [Compound 196]
3. O=S(=O)(N[C@@H]1CCN(CCCc2noc3cc(F)ccc23)C1)c1csc2ccccc12 [Compound 224]
4. O=S(=O)(NC1CCN(CCCc2noc3cc(F)ccc23)C1)c1ccc2ccccc2c1 (centres unmarked) [Compound 21]

(A)
1: 5; 2: 0; 3: −1; 4: −1

---

assayed_target: D2 dopaminergic receptors (Homo sapiens, UniProt P14416)
Sequence (P14416 whole entry): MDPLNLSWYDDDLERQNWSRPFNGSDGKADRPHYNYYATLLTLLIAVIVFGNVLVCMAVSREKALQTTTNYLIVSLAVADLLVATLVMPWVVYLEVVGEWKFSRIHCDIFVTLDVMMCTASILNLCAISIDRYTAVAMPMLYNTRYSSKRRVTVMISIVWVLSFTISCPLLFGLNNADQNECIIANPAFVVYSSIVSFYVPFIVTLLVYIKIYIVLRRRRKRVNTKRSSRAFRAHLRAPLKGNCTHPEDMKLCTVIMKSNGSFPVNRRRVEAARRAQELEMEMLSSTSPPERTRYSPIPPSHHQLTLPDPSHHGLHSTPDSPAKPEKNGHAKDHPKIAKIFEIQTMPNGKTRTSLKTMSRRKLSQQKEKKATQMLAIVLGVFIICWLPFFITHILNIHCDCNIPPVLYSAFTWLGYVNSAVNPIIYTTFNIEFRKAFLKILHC
procedure_summary: Cellular functional assay, D2 dopaminergic receptors
Assay type: cell-based
conditions: agonism, D2S (h), HEK-293 cells, percent of control specific agonist response (3 μM dopamine for control)
measurement_kind: D2 ag [%] (%)
Answers are plain numbers, in %.

[[record]]
compound = "O=S(=O)(N[C@H]1CCN(CCCc2noc3cc(F)ccc23)C1)c1cc2ccccc2s1 [Compound 197]"
assayed_target = "D2 dopaminergic receptors (Homo sapiens, UniProt P14416)"
unit_annotation = "%"
value_measured = 1

[[record]]
compound = "O=S(=O)(NC1CCN(CCCc2noc3cc(F)ccc23)C1)c1ccc2cc(Cl)ccc2c1 (centres unmarked) [Compound 23]"
assayed_target = "D2 dopaminergic receptors (Homo sapiens, UniProt P14416)"
unit_annotation = "%"
value_measured = 1

[[record]]
compound = "O=S(=O)(NC1CCN(CCCc2noc3cc(F)ccc23)C1)c1cc2ccccc2s1 (centres unmarked) [Compound 25]"
assayed_target = "D2 dopaminergic receptors (Homo sapiens, UniProt P14416)"
unit_annotation = "%"
value_measured = 3


Please supply D2 ag [%] for each of the following items, keeping them in order.
1. O=S(=O)(NC1CCN(CCCc2noc3cc(F)ccc23)C1)c1cccc2ccccc12 (centres unmarked) [Compound 20]
2. O=S(=O)(NC1CN(CCOc2cccc3[nH]ccc23)C1)c1cccc2ccccc12 [Compound 49]
3. Cc1c(S(=O)(=O)N[C@@H]2CCN(CCCc3noc4cc(F)ccc34)C2)sc2ccc(Cl)cc12 [Compound 204]

(A)
[4, 57, 1]

Take each entry in turn and give its D2 ag [%].
1. O=S(=O)(NCC1CCN(CCCc2noc3cc(F)ccc23)C1)c1cccc2ccccc12 (centres unmarked) [Compound 239]
2. O=S(=O)(NC1CCN(CCCc2c[nH]c3ccc(F)cc23)C1)c1ccc2ccccc2c1 (centres unmarked) [Compound 80]
3. O=S(=O)(N[C@@H]1CCN(CCCc2noc3cc(F)ccc23)C1)c1cc2ccccc2o1 [Compound 214]

(A)
1: 2; 2: 33; 3: 3

Could I get D2 ag [%] for every one of these entries?
1. Cc1ccc2sc(S(=O)(=O)NC3CCN(CCCc4noc5cc(F)ccc45)C3)cc2c1 (centres unmarked) [Compound 226]
2. O=S(=O)(NC1CN(CCOc2cccc3c2OCCO3)C1)c1cccc2ccccc12 [Compound 94]
3. O=S(=O)(NCC1CCN(CCCc2noc3cc(F)ccc23)C1)c1ccc2ccccc2c1 (centres unmarked) [Compound 240]
4. O=S(=O)(NCC1CN(CCOc2cccc3c2OCCO3)C1)c1ccc(Cl)c(Cl)c1 [Compound 183]
5. O=S(=O)(NC1CN(CCOc2cccc3[nH]ccc23)C1)c1ccc2ccccc2c1 [Compound 50]
6. O=S(=O)(N[C@@H]1CCN(CCCc2noc3cc(F)ccc23)C1)c1ccc2cc(Cl)ccc2c1 [Compound 200]
7. COc1ccc2cc(S(=O)(=O)N[C@@H]3CCN(CCCc4noc5cc(F)ccc45)C3)ccc2c1 [Compound 230]
8. Cc1ccc2sc(S(=O)(=O)N[C@@H]3CCN(CCCc4noc5cc(F)ccc45)C3)cc2c1 [Compound 228]

(A)
1. 0
2. 45
3. 3
4. 8
5. 56
6. 0
7. 3
8. −1

Quick one: give me D2 ag [%] for each item below, same order please.
1. O=S(=O)(NCC1CCN(CCOc2cccc3ccccc23)C1)c1ccc2ccccc2c1 (centres unmarked) [Compound 124]
2. COc1ccc2cc(S(=O)(=O)NC3CCN(CCCc4noc5cc(F)ccc45)C3)ccc2c1 (centres unmarked) [Compound 227]
3. Cc1c(S(=O)(=O)N[C@H]2CCN(CCCc3noc4cc(F)ccc34)C2)sc2ccc(Cl)cc12 [Compound 205]
4. O=S(=O)(NCC1CN(CCOc2cccc3ccccc23)C1)c1ccc2ccccc2c1 [Compound 122]
5. O=S(=O)(N[C@H]1CCN(CCCc2noc3cc(F)ccc23)C1)c1csc2ccccc12 [Compound 225]
6. O=S(=O)(NC1CCN(CCCc2noc3cc(F)ccc23)C1)c1cc2ccccc2o1 (centres unmarked) [Compound 216]

(A)
1: 33; 2: 11; 3: 3; 4: 33; 5: 7; 6: 0
